- Tested on: NCI-H460 lung
- assay_name: NCI tumour cell line growth inhibition, 48 h
result_type: TGI

[
  {
    "compound": "C[N+](C)(C)CC(=O)N/N=C\\c1c(O)ccc2ccccc12",
    "result_type": "TGI",
    "val": "70.5 µM"
  }
]

Notebook: COC(=O)[C@@H](C)C[C@H](Cc1ccccc1)NC(=O)c1nc([C@@H](C[C@H](C(C)C)N(C)C(=O)[C@@H](NC(=O)[C@H]2CC(=O)CCN2C)C(C)C)OC(C)=O)sc1C(C)C , TGI read as > 5.85 µM

Lab note: COc1cc(OC)cc(Oc2nc3ccc(C(F)(F)F)cc3nc2-c2ccccc2)c1 gave TGI of > 100 µM

The compound CC(=O)[O-].O=C([CH-]C(=O)c1ccccc1)c1ccccc1.O=C([CH-]C(=O)c1ccccc1)c1ccccc1.[Dy+3] showed TGI equal to > 100 µM

Just so you know, measured TGI for C[C@H](O)CCC(=O)c1ccoc1 came out at > 100 µM

For COc1cc(Nc2nc(NS(=O)(=O)c3cc(C)c(Cl)cc3S)n[nH]2)cc(OC)c1OC the compound record lists TGI as > 100 µM

Value of TGI reported for the compound O=C(CC1(O)C(=O)Nc2ccc(Br)cc21)c1cccc([N+](=O)[O-])c1 (stereo not given) is > 100 µM

So for CC1(C)N=C(N)N=C(N)N1c1cccc(CC(=O)Nc2ccccc2)c1 , the logged TGI turned out to be > 100 µM

Recorded TGI (compound CC(C)C1CC(CO)(CNc2nc(N)nc(Cl)c2C=O)C1 (stereo not given) ): 31.9 µM

# TGI of CCOP(=O)(OCC)/C(F)=C/c1ccc(F)cc1 = > 100 µM

Per the record, Cc1cc(Br)ccc1N=NC1C(=O)ON=C1c1ccccc1 (stereo not given) has TGI of > 100 µM

Recorded result, O=[N+]([O-])c1ccc(-c2ccc([C@H]3CC(c4cc(F)c(Cl)cc4Cl)=NN3)o2)cc1 , TGI: > 100 µM

Sure, the documented TGI for CCOC(=O)c1sc(N)nc1N1CCCC1 is > 100 µM

COc1cnc2c(c1)C(=O)c1c-2n(CCCN2CCNCC2)c(=O)c2cc(F)ccc12 yielded TGI of 0.275 µM

The compound listed as NS(=O)(=O)c1ccc(NNc2c3ccccc3nc3c(C(=O)Nc4ccc(S(N)(=O)=O)cc4)cccc23)cc1 shows TGI equal to > 100 µM

Form: compound = CN(C)CCCn1c2c(c3ccc(N4CCNCC4)cc3c1=O)C(=O)c1ccccc1-2 ; TGI = 1.56 µM

Item: Cc1nc2ccccc2c(=O)n1/N=C(\N=Nc1ccc(Cl)cc1)c1ccc(N(C)C)cc1 | TGI: > 100 µM

###

- System: SF-268 CNS
- assay_name: NCI tumour cell line growth inhibition, 48 h
result_type: TGI

Sample records with TGI:
[
  {
    "mol_smiles": "Cc1cccc2c(=O)c3cccc(CC(=O)O)c3oc12",
    "system_tested": "SF-268 CNS",
    "TGI": "> 100 µM"
  },
  {
    "mol_smiles": "O=C(O)CN1CCN2CCOCCN(CC1)CCN(CC(=O)O)CC2",
    "system_tested": "SF-268 CNS",
    "TGI": "> 100 µM"
  }
]

Next compound, please.
The compound C=C(C)[C@@H]1CC[C@]2(C(=O)OC)CC[C@]3(C)[C@H](CC[C@@H]4[C@@]5(C)CC/C(=N\OCCC(=NCCC#N)NOCCC#N)C(C)(C)[C@@H]5CC[C@]43C)[C@@H]12 showed TGI equal to > 50 µM
